- tested_target: human GlyT1c transporter (Homo sapiens)
- Construct: expressed in transfected cells; host or cells: CHO cells (recombinant; line hGlyT1c_5_CHO is named for the uptake assay)
- assay_name: Radioligand binding assay using recombinant CHO cell membranes expressing human GlyT1
- settings: radioligand binding to human GlyT1c transporter-expressing membranes
Below: a set of entries, each annotated with reported Ki.

Previously resolved entries follow.
compound | tested_target | Ki
Cn1cnc(S(=O)(=O)N2C[C@H](Nc3cccc(Cl)c3)[C@@H](c3ccc(F)cc3)C2)c1 | human GlyT1c transporter (Homo sapiens) | ≤ 100 nM
Cn1cnc(S(=O)(=O)N2C[C@@H](NC(=O)c3ccccc3)[C@H](c3ccccc3)C2)c1 (relative stereo) | human GlyT1c transporter (Homo sapiens) | ≤ 10000 nM
Cc1ccccc1-c1cc(N[C@H]2CN(S(=O)(=O)c3cn(C)cn3)C[C@@H]2c2ccc(F)cc2)ncn1 | human GlyT1c transporter (Homo sapiens) | ≤ 100 nM
Cn1cnc(S(=O)(=O)N2C[C@@H](NC(=O)c3ccc(C(F)(F)F)c(Cl)c3)[C@H](c3ccccc3)C2)c1 (relative stereo) | human GlyT1c transporter (Homo sapiens) | ≤ 1000 nM
CCCC(F)(F)C(=O)N[C@H]1CN(S(=O)(=O)c2cn(C)cn2)C[C@@H]1c1ccc(F)cc1 | human GlyT1c transporter (Homo sapiens) | ≤ 10000 nM

Shift focus to the following entry.
Query: Which value of Ki has been reported for O=S(=O)(c1ccc2c(c1)OCO2)N1CC(Nc2ccc(F)c(F)c2)C(c2ccccc2)C1 (stereo not drawn) in the records?
Result: > 10000 nM

---

Below: a set of entries, each annotated with reported Ki.
- tested_target: human GlyT1c transporter (Homo sapiens, UniProt P48067)
- Construct: expressed in transfected cells; host or cells: CHO cells (recombinant; line hGlyT1c_5_CHO is named for the uptake assay)
- assay_name: Radioligand binding assay using recombinant CHO cell membranes expressing human GlyT1
- settings: radioligand binding to human GlyT1c transporter-expressing membranes

molecule | Ki
Cn1cnc(S(=O)(=O)N2C[C@@H](Nc3ccc(Cl)c(F)c3)[C@H](c3cccc(F)c3)C2)c1 (relative stereo) | ≤ 10000 nM
CC(C)c1cc(N[C@H]2CN(S(=O)(=O)c3cn(C)cn3)C[C@@H]2c2ccc(F)cc2)ncn1 | ≤ 1000 nM
Cn1cnc(S(=O)(=O)N2C[C@@H](Nc3cccc(C(C)(C)C)c3)[C@H](c3ccc(F)cc3)C2)c1 (relative stereo) | ≤ 100 nM
Cn1cnc(S(=O)(=O)N2C[C@@H](Nc3cccc(C(F)(F)F)c3F)[C@H](c3ccc(F)cc3)C2)c1 (relative stereo) | ≤ 100 nM
Cn1cnc(S(=O)(=O)N2C[C@H](Nc3cc(OCC(F)(F)F)c(Cl)cn3)[C@@H](c3ccc(F)cc3)C2)c1 | ≤ 10 nM

Query: Which value of Ki has been reported for Cn1cnc(S(=O)(=O)N2C[C@@H](Nc3cc(Cl)cc(C#N)c3)[C@H](c3ccccc3)C2)c1 (relative stereo) in the records?
Result: ≤ 1000 nM

---

- tested_target: human GlyT1c transporter (Homo sapiens, UniProt P48067)
- Construct: expressed in transfected cells; host or cells: CHO cells (recombinant; line hGlyT1c_5_CHO is named for the uptake assay)
- assay_name: Radioligand binding assay using recombinant CHO cell membranes expressing human GlyT1
- settings: radioligand binding to human GlyT1c transporter-expressing membranes
Below: a set of entries, each annotated with reported Ki.

Previously resolved entries follow.
compound | Ki
Cn1cnc(S(=O)(=O)N2C[C@H](NCc3ccc(C4CCCCO4)s3)[C@@H](c3ccccc3)C2)c1 (stereo partly shown) [Example 558] | ≤ 10 µM
Cn1cnc(S(=O)(=O)N2C[C@H](Nc3ccc(F)c(F)c3)[C@@H](c3ccc(F)cc3)C2)c1 [Example 418] | ≤ 0.1 µM
COc1ccc([C@@H]2CN(S(=O)(=O)c3cn(C)cn3)C[C@H]2NC(=O)c2cccc(C(F)(F)F)c2Cl)cc1 (relative stereo) [Example 2] | ≤ 1 µM
Cn1cnc(S(=O)(=O)N2C[C@H](Nc3cc(OCc4ccccc4)ncn3)[C@@H](c3ccc(F)cc3)C2)c1 [Example 774] | ≤ 0.1 µM
Cn1cnc(S(=O)(=O)N2C[C@@H](Nc3cc(C(F)(F)F)ncn3)[C@H](c3ccccc3)C2)c1 (relative stereo) [Example 240] | ≤ 0.1 µM
O=C(N[C@@H]1CN(S(=O)(=O)c2cn[nH]c2)C[C@H]1c1ccccc1)c1cccc(C(F)(F)F)c1Cl (relative stereo) [Example 46] | ≥ 10 µM

Shift focus to the following entry.
Query: Which value of Ki has been reported for Cn1cnc(S(=O)(=O)N2CC(Nc3cccc(OC(F)(F)F)c3)C(C3CCN(C4CC4)CC3)C2)c1 (stereo not shown) [Example 678] in the records?
Result: ≤ 1 µM

---

- tested_target: human GlyT1c transporter (Homo sapiens, UniProt P48067)
- Construct: expressed in transfected cells; host or cells: CHO cells (recombinant; line hGlyT1c_5_CHO is named for the uptake assay)
- Sequence (P48067 1-706): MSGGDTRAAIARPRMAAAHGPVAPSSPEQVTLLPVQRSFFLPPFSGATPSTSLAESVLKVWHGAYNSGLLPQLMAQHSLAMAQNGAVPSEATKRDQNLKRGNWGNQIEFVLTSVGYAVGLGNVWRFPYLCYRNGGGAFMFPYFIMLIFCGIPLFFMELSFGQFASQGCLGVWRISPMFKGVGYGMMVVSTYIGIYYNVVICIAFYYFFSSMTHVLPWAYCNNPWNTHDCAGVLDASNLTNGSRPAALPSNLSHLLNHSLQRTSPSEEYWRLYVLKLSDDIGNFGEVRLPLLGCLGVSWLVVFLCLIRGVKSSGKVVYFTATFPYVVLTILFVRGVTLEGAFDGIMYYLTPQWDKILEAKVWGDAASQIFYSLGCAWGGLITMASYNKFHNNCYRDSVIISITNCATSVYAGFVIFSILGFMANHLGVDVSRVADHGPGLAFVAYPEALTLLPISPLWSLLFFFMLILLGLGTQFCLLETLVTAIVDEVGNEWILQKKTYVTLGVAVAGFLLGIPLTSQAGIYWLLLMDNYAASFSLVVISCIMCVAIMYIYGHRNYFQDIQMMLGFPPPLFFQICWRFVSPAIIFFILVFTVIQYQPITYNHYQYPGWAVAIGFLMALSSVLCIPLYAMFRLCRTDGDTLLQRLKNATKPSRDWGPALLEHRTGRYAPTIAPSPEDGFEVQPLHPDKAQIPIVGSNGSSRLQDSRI
- assay_name: Radioligand binding assay using recombinant CHO cell membranes expressing human GlyT1
- settings: radioligand binding, recombinant CHO cell membranes expressing human GlyT1c
Below: a set of entries, each annotated with reported Ki.

Previously resolved entries follow.
compound | Ki
Cn1cnc(S(=O)(=O)N2C[C@@H](Nc3ccc(F)c(C(F)(F)F)c3)[C@H](C3CCOC3)C2)c1 (relative stereo) | ≤ 1000 nM
Cn1cnc(S(=O)(=O)N2C[C@@H](Nc3cccc(C(F)(F)F)c3)[C@H](C3CCOC3)C2)c1 (relative stereo) | ≤ 1000 nM

Query: Which value of Ki has been reported for Cn1cnc(S(=O)(=O)N2C[C@@H](Nc3cccc(OCC(F)(F)F)c3)[C@H](C3CCCO3)C2)c1 (relative stereo) in the records?
Result: ≤ 100 nM

Query: Ok, now Cc1cc(N[C@@H]2CN(S(=O)(=O)c3cn(C)cn3)C[C@H]2C2CCCCO2)ncc1F (relative stereo)
Result: ≤ 1000 nM

Query: Ok, now Cn1cnc(S(=O)(=O)N2C[C@H](Nc3ccc4c(c3)N(Cc3ccccc3)CC4)[C@@H](c3ccccc3)C2)c1
Result: ≤ 10000 nM

Query: Ok, now Cn1cnc(S(=O)(=O)N2C[C@@H](Nc3ccc(F)c(Cl)c3)[C@H](C3CCOC3)C2)c1 (relative stereo)
Result: ≤ 10000 nM

---

- tested_target: human GlyT1c transporter (Homo sapiens, UniProt P48067)
- Construct: expressed in transfected cells; host or cells: CHO cells (recombinant; line hGlyT1c_5_CHO is named for the uptake assay)
- Sequence (P48067 1-706): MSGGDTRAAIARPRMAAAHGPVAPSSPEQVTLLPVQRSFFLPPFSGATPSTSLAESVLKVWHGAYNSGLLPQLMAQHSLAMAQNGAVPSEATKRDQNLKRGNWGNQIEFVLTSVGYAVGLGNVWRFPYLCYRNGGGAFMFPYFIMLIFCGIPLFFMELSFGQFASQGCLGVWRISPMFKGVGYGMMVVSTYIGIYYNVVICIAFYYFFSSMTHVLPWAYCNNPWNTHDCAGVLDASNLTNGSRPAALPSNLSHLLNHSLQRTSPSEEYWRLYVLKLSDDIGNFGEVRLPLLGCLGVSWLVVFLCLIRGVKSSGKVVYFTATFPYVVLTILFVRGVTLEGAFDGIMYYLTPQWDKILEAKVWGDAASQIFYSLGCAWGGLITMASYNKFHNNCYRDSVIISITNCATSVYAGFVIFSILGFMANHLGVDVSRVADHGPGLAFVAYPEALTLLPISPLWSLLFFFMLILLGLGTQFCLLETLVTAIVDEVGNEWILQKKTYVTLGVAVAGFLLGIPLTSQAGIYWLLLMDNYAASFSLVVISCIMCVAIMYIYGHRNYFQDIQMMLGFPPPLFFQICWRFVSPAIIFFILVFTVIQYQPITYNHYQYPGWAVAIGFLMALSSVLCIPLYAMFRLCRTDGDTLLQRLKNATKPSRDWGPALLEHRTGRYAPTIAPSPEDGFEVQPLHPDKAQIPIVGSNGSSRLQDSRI
- assay_name: Radioligand binding assay using recombinant CHO cell membranes expressing human GlyT1
- settings: radioligand binding, recombinant CHO cell membranes expressing human GlyT1c
pKi: −log10 of the molar value.
Below: a set of entries, each annotated with reported pKi.

Query: Give recorded pKi with human GlyT1c transporter (Homo sapiens, UniProt P48067) for the following compound: Cc1cc(N[C@@H]2CN(S(=O)(=O)c3cn(C)cn3)C[C@H]2C2CCCO2)ccc1F (relative stereo)
Result: ≥ 6.00
